Test system: HT-29
assay_explanation: NCI tumour cell line growth inhibition, 48 h
Activity calls are given as the source filed them. Rule as the data show it: active = GI50 up to about 1.1 µM and inactive = higher. Starred links: 1 amine or outer side, 2 acyl side, 3 side chain; linkers in the order of their positions; H or OH if unused. Non-standard residues stand in square brackets, D forms with d. Residues, ends and D or L forms follow the SMILES beside them. ξ: configuration not given here. Ile(3ξ) = CCC(C)[C@H](N)C(=O)O; X35 = C=CCC(O[*:1])C(=O)[*:2]; NMeV = CN[C@H](C(=O)O)C(C)C; NMeA = CN[C@@H](C)C(=O)O; βAla = NCCC(=O)O
Valid outcomes are listed here; reply with one: 1 for active, -1 for inactive

Please state the recorded outcome for this molecule: CCCCCCCCCCCc1c(O)c(=O)c2c(oc3c(=O)c(CCCCCCCCCCC)c(O)c(=O)c3n2-c2ccc(N(C)C)cc2)c1=O
-1

So what was the verdict on CC(C)NC(=O)OCc1c(COC(=O)NC(C)C)c(-c2cc[n+](COC(=O)C(C)(C)C)cc2)n2c1CCC2 in this test?
-1

Which outcome was assigned to CC(CN(C)C)C(=O)c1ccccc1C(=O)O (stereo not given) in this test?
-1

// outcome(item) with item = CO[C@H]1C=C[C@]23c4cc5c(cc4CN(CC2O)[C@@H]3C1)OCO5 (stereo not given in full)
-1

Entry O=C(O)CCSc1ncnc2[nH]cnc12 : call = ?
-1

Check the results log: what was the call for CN(C)c1ccc(/C=C2\N=C(c3ccccc3)N(/N=C3\C(=O)Nc4ccccc43)C2=O)cc1 ?
-1

# outcome recorded in this test, key = c1ccc2c(c1)cc1ccc3cccc4ccc2c1c34
-1

Recorded test outcome, item CC(C)NC1CCCCC2c3ccccc3C12O (stereo not given)
-1

What outcome does the record of this test show for COc1ccc(/C=C/c2sc3ccccc3[n+]2CCCCI)cc1OC ?
-1

Just curious, what result did O=C(O)CCSC(CC1(c2ccc(Cl)cc2)NC(=O)CCS1)c1ccccc1 (stereo not given) get here?
-1

Please state the recorded outcome for this molecule: CC(C)(C)c1cc(OCc2nnc3sc(-c4ccc(Cl)cc4)nn23)c(Cl)cc1OCc1nnc2sc(-c3ccc(Cl)cc3)nn12
-1

Which result was noted for this molecule in the test: CCCCCCCCCCn1cccc1/C=C/c1ccc(/C=C/c2cccn2CCCCCCCCCC)cc1
-1

Which result was noted for this molecule in the test: Cc1ccc(NC(=O)C(=O)CC(=O)c2c(C)[n+]([O-])c3ccccc3[n+]2[O-])cc1
-1

Which outcome was assigned to C#CC(O)(c1nc2ccccc2s1)c1nc2ccccc2s1 in this test?
-1

Record lookup: outcome of this test for Cc1cc(C)c(NC(=O)/C=C/c2ccccc2)c(C)c1 ?
-1

Tell me the assay call for Cc1nc2ccc(/N=N/N(C)C)cc2[nH]1 please.
-1

How was O=P(Oc1ccc2ccccc2c1)(N1CC1)N1CC1 classified in this test?
-1

For CS(=O)(=O)Sc1ccc(Cl)cc1 , what call appears in the results of this test?
-1

Field: outcome | Entry: O=C1NC2=NN=C(c3ccc(Br)cc3)CN2NC12c1ccccc1-c1ccccc12
-1

Record request — test call for CSCSCC(CO)NC(=O)/C(C)=C\c1c(C)[nH]c(=O)[nH]c1=O (stereo not given)
-1

Short answer needed: outcome of this test for Cc1cc2c(cc1C)C(=O)/C(=C/c1ccccc1C(=O)O)C2 ?
-1

Per the records of this test, what outcome belongs to Cc1ccc(S(=O)(=O)N[C@@H](Cc2ccccc2)C(=O)CCl)cc1 ?
-1

GET /call?item= CN(C)CCNC(=O)c1cccc2nc3cccc(F)c3nc12 returns the recorded outcome of this test.
1

Name the outcome recorded for O=C(O)c1ccccc1C(=O)NCC1S(=O)(=O)OCCOS1(=O)=O in the assay.
-1

# outcome recorded in this test, key = O=C(Cn1nnc(-c2ccccc2)n1)N/N=C/c1cn(Cc2ccc(Cl)cc2Cl)c2ccccc12
-1

Returns: the outcome recorded for Oc1ccc2ccccc2c1CN(Cc1c(O)ccc2ccccc12)C1CCCCC1 in this assay.
-1

Each molecule tested received a call. Report the one for CN(C)c1nc(Oc2nc(N(C)C)nc(N(C)C)n2)nc(N(C)C)n1 .
-1

What is the recorded call for this molecule in the test? CCOC(=O)NC(=O)c1cn(CCN2CCN(C(=O)CCCCCCCCCCC(=O)N3CCN(CCn4cc(C(=O)NC(=O)OCC)c(=O)[nH]c4=O)CC3)CC2)c(=O)[nH]c1=O
-1

Call for entry Nc1ccc(C(=O)O)cc1.Nc1nc(N)c2nc[nH]c2n1 :
-1

# lookup: test call for COC1=CC(c2ccc(Br)[nH]2)=N/C1=C/NCC(C)C
-1

Please share the test call associated with CC(C)(C)OC(=O)C1/C(=C/CBr)CN1C(=O)OC(C)(C)C (stereo not given) .
-1

Given CCOC(=O)/C(=C\NCC(OCC)OCC)c1nc2ccccc2[nH]1 , state the outcome it received in this test.
-1

Which outcome was assigned to CCOc1ccnc2c(OC)c(C)c3nc4ccccc4nc3c12 in this test?
-1

Hey, what did the test say about COc1cc2cc(C(=O)N3CC(CCl)c4ccc([N+](=O)[O-])cc43)[nH]c2c(OC)c1OC (stereo not given) ?
-1

Just curious, what result did O=C1C=C2CC[C@H]3[C@@H]4CC[C@H](OC(=O)c5cccc6cc7ccccc7nc56)[C@H]4CC[C@@H]3[C@H]2CC1 get here?
-1

GET /call?item= CC1C(=O)C23OC[C@@]1(C)C1(O)CC[C@@H](C)[C@]21CC3=O (stereo not given in full) returns the recorded outcome of this test.
-1

Check the results log: what was the call for O=C(NC1CCN(Cc2ccccc2)CC1)c1ccc(I)cc1 ?
-1

Could you please tell me the result logged for N#C[BH2-][n+]1cn(C2CC(O)C(COP(=O)(O)OC3CC(n4cnc5c(=O)[nH]c(N)nc54)OC3CO)O2)c2nc(N)[nH]c(=O)c21 (stereo not given) in this assay?
-1

Which outcome was entered for the molecule Nc1nc(SCC(=O)c2ccccc2)c2[nH]cnc2n1 in this test?
-1

Each molecule tested received a call. Report the one for C=CCC1OC(=O)CCNC(=O)[C@H](C)N(C)C(=O)[C@H](C(C)C)N(C)C(=O)[C@H](C(C)CC)NC(=O)[C@@H]2CCCN2C1=O (stereo not given in full) (cyclo([Ile(3ξ)][NMeV][NMeA][βAla][X35]P)) .
-1

Measured values drawn from ChEMBL document CHEMBL1201862 for this set.
